Target: human renin (Homo sapiens)
Construct: taking the active type (67-406); made in house
Sequence (P00797 67-406): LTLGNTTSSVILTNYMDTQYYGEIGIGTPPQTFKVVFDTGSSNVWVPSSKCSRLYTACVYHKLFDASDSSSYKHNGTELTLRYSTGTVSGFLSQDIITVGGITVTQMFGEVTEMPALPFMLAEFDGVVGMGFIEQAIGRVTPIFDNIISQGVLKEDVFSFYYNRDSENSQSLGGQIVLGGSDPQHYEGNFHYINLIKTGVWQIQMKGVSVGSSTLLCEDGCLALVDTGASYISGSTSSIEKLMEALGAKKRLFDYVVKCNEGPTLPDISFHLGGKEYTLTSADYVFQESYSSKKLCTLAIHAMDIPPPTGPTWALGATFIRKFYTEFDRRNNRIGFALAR
Experiment: Measurement of renin inhibition value - B (angiotensinogen substrate, angiotensin I EIA)
Type: biochemical
Conditions: 1 μM test compound, pH 7.4, 37° C., 30 min, read-out: human renin inhibitory activity: inhibitory activity (%) at 1 μM
Where a name gives a salt, the structure may show the parent alone.
MEASURED_PROPERTY: inhibition at 1 µM (%)
# output: bare number, implied unit %

Name the recorded inhibition at 1 µM of the item CC(C)CN(C(=O)c1cnc(C(C)(C)C)nc1NCc1ccco1)[C@@H]1CNC[C@H](C(C)(C)O)C1 (relative stereo) [Example 95, dihydrochloride] in your answer.
97

Name the recorded inhibition at 1 µM of the item CC(C)(C)c1ncc(C(=O)N2CCC(CN)CC2)c(NCc2ccco2)n1 [Example 58, dihydrochloride] in your answer.
82

Name the recorded inhibition at 1 µM of the item COC(=O)[C@H]1CNC[C@@H](N(CC(C)C)C(=O)c2cnc(C(C)(C)C)nc2NCCCSC)C1 (relative stereo) [Example 98] in your answer.
97

Name the recorded inhibition at 1 µM of the item CC(C)CN(C(=O)c1cnc(C(C)(C)C)nc1NCc1ccco1)[C@@H]1CNC[C@H](C(=O)N2CCC(C)(O)CC2)C1 (relative stereo) [Example 94, dihydrochloride] in your answer.
97

Name the recorded inhibition at 1 µM of the item CC(C)CN(C(=O)c1cnc(C(C)(C)C)nc1NCc1ccco1)[C@@H]1CNC[C@H](C(N)=O)C1 [Example 132, dihydrochloride] in your answer.
98
